Molecular target: FGFR2 (h) (Homo sapiens, UniProt P21802)
Sequence (P21802 22-821): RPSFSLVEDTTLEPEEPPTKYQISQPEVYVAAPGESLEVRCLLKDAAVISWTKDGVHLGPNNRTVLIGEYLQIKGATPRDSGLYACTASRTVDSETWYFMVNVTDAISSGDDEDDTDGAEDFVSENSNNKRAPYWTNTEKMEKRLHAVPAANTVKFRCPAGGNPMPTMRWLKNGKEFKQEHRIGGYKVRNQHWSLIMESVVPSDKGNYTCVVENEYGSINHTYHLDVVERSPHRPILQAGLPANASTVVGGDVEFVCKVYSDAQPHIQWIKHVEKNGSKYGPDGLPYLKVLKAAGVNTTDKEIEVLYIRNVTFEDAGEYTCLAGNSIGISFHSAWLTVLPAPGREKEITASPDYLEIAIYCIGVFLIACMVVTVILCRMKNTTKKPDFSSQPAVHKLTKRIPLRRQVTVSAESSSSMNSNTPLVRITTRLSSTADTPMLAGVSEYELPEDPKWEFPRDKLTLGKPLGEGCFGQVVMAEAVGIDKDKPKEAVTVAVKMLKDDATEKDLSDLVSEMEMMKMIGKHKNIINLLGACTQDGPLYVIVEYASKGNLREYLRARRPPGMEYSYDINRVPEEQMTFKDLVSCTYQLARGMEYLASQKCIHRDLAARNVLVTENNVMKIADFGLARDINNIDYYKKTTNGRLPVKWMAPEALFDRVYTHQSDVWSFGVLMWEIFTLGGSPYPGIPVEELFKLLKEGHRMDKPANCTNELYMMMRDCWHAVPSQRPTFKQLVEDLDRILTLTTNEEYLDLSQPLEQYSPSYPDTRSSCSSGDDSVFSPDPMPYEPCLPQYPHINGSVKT
Assay: FGFR2 (enzymatic assay), TR-FRET
Format: biochemical
Conditions: enzymatic assay; average values if tested multiple times; read-out: FGFR 2 pIC50 (converted)
compounds and their reported log10 of IC50
The common logarithm of IC50 in nM is what is listed.

# annotated cases, reported log10 of IC50 shown
CNCCn1/c(=N/c2cc(OC)cc(OC)c2F)ccc2ncc(-c3cnn(C)c3)nc21 [Compound 38]; 0.66
COc1cc(OC)c(F)c(/N=c2\ccc3ncc(-c4cnn(C)c4)nc3n2CCN)c1F [Compound 68]; 0.20

Form field: reported log10 of IC50 of COc1cc(O)cc(N(Cc2ncc[nH]2)c2ccc3ncc(-c4cnn(C)c4)nc3n2)c1F [Compound 95] -0.02

Which log10 of IC50 value belongs to COc1ccc(F)c(N(Cc2ncc[nH]2)c2ccc3ncc(-c4cnn(C)c4)nc3n2)c1Cl [Compound 73] ? 0.45

Give its log10 of IC50 value. Item: COCC(O)CN(c1ccc2ncc(-c3cnn(C)c3)nc2n1)c1cc(OC)cc(OC)c1F (single isomer, unassigned) [Compound 58] 0.29

log10 of IC50 lookup needed for CNCCN(c1ccc2ncc(-c3cn[nH]c3)nc2n1)c1c(F)c(OC)cc(OC)c1F [Compound 106] , thanks. 0.33

So what does the record say about log10 of IC50 for COc1cc(OC)c(F)c(N(CC2COC(=O)N2)c2ccc3ncc(-c4cnn(C)c4)nc3n2)c1 (single isomer, unassigned) [Compound 111] ? 0.30

Suppose we examine the compound COc1cc(OC)c(F)c(N(Cc2ncccn2)c2ccc3ncc(-c4cnn(C)c4)nc3n2)c1F [Compound 11] ; what log10 of IC50 value has been reported? 1.70

For the compound COc1cc(OC)c(F)c(N(c2ccc3ncc(-c4cnn(C)c4)nc3n2)C(CO)COC(C)C)c1 (single isomer, unassigned) [Compound 76] , what log10 of IC50 is on record? 2.67
